B1: Retinoic acid receptor RXR-alpha, residues 132 to 208; numbered along this chain, P19793 (parent)
chain: KHICAICGDRSSGKHYGVYSCEGCKGFFKRTVRKDLTYTCRDNKDCLIDKRQRNRCQYCRYQKCLAMGMKREAVQEE

Variants of: B1
procedureSummary: abundance fitness (aPCA) (normalised: wild type 0, dead -1); higher = more abundant; growth selection in yeast, the domain comes from the species named
assayConditions: Homo sapiens
Consider the following partition of reported abundance fitness into named classes: bucket A = under -0.2, bucket B = from -0.2 up to -0.01, bucket C = -0.01 and over

Use these answered entries as a reference point.
# bin lookup: classify `G23Q` by its abundance fitness
bucket B

Which class is correct for the following variant? `I3A`
bucket A

Which class holds `R33D` ?
bucket C

Sort into band: `Y16W`
bucket B

Which abundance fitness category applies to `R41P` here?
bucket C

Dear colleague, I would appreciate it if you could identify the bin for `K1R` and reply at your convenience.
bucket A

Lab note: next variant to report on.
Lab note: sort `Y16G` into the matching abundance fitness band.
bucket C
